Experiment: Times to onset, minimal and maximal, observed in the indexed observations. [column 'DELAI' in source]
Conditions: human
Recorded Hepatotoxicity (time to onset) by entry

molecule	Hepatotoxicity (time to onset)
Cc1cn([C@H]2C[C@H](N=[N+]=[N-])[C@@H](CO)O2)c(=O)[nH]c1=O	1 week - 8 years
O=c1[nH]c2ccccc2n1CCCN1CCC(n2c(=O)[nH]c3cc(Cl)ccc32)CC1	< 1 week
C=C[C@H]1C[N@@]2CC[C@H]1C[C@H]2[C@H](O)c1ccnc2ccc(OC)cc12	< 1 day - 2 years

Look up Hepatotoxicity (time to onset): COc1cc2c(cc1OC)C(=O)C(CC1CCN(Cc3ccccc3)CC1)C2 (stereo unspecified)
10 days - 12 days

Data request, read-out Hepatotoxicity (time to onset), for O=C1c2cccc(O)c2C(=O)c2c(O)cccc21
2 days - 1 year

Data request, read-out Hepatotoxicity (time to onset), for NS(=O)(=O)c1cc(C(=O)O)cc(N2CCCC2)c1Oc1ccccc1 [PIRETANIDE]
3 weeks

---

Measured Hepatotoxicity (time to onset), listed per entry.
Assay: Times to onset, minimal and maximal, observed in the indexed observations. [column 'DELAI' in source]
Details: human

Past entries and their recorded results:
compound	metric_name	recorded_measurement
CCOC(=O)/C=C(C)/C=C/C=C(C)/C=C/c1c(C)cc(OC)c(C)c1C [ETRETINATE]	Hepatotoxicity (time to onset)	1 week - 1 year
CCN(CC)CCCC(C)Nc1ccnc2cc(Cl)ccc12 (stereo unspecified) [CHLOROQUINE]	Hepatotoxicity (time to onset)	1 day - 4 months
NC(=O)c1cccnc1 [NIACINAMIDE]	Hepatotoxicity (time to onset)	< 2 months - 3 months
CNCCC=C1c2ccccc2CCc2ccccc21 [NORTRIPTYLINE]	Hepatotoxicity (time to onset)	2 months - 3 months
CCn1cc(C(=O)O)c(=O)c2cc(F)c(N3CCNCC3)nc21 [ENOXACIN]	Hepatotoxicity (time to onset)	9 days

# query: Hepatotoxicity (time to onset) of entry CCCCN1CCCCC1C(=O)Nc1c(C)cccc1C (stereo unspecified) [BUPIVACAINE]
2 weeks - 1 month

If you can, please state the reported Hepatotoxicity (time to onset) value of CCCc1cc(C(N)=S)ccn1 [PROTIONAMIDE] .
3 months - 1 year

Request the reported Hepatotoxicity (time to onset) associated with C[C@H](O)C(=O)Nc1c(I)c(C(=O)NC(CO)CO)c(I)c(C(=O)NC(CO)CO)c1I [IOPAMIDOL]
0.021 days

Return reported Hepatotoxicity (time to onset); argument: OCCN1CCN(CCCN2c3ccccc3Sc3ccc(Cl)cc32)CC1 [PERPHENAZINE]
2 months

Query: Hepatotoxicity (time to onset); subject: CCOC(=O)CN[C@@H](C(=O)N1CC[C@H]1C(=O)NCc1ccc(/C(N)=N\O)cc1)C1CCCCC1 [XIMELAGATRAN]
1 month - 6 months

GET /values?readout=Hepatotoxicity (time to onset)&item= CN(C)C(=O)OC1N=C(c2ccccc2)c2cc(Cl)ccc2N(C)C1=O (stereo unspecified) [CAMAZEPAM]
3 months

Which measured Hepatotoxicity (time to onset) value corresponds to C[C@]12C=CC(=O)C=C1CC[C@@H]1[C@@H]2C(=O)C[C@@]2(C)[C@H]1CC[C@]2(O)C(=O)CO [PREDNISONE] ?
10 months

Record request: Hepatotoxicity (time to onset) value, item C=CCC(C(=O)NC(N)=O)C(C)C (stereo unspecified) [APRONAL]
2 days - 2 years

What does the data say about its Hepatotoxicity (time to onset)? Entry: CC(=O)CC(c1ccccc1)c1c(O)c2ccccc2oc1=O (stereo unspecified) [WARFARIN]
1 week - 2.5 years

Given the compound O=C(O)C1=C(CSc2nnnn2CS(=O)(=O)O)CS[C@@H]2[C@H](NC(=O)[C@H](O)c3ccccc3)C(=O)N12 [CEFONICID] , what is its reported Hepatotoxicity (time to onset)?
4 days - 20 days

Given C[C@]12C=CC(=O)C=C1CC[C@@H]1[C@@H]2[C@@H](O)C[C@@]2(C)[C@H]1CC[C@]2(O)C(=O)CO [PREDNISOLONE] , state its recorded Hepatotoxicity (time to onset).
6 days - 8 years

---

Details: human, serum
metric_name: Hepatotoxicity (moderate)
Keep it simple and answer with nothing but the number.

Reference set (2 entries):
ordered_residues	Hepatotoxicity (moderate)
NYSTATIN	3
INTERFERON ALFA-2B	52

If you can, please state the reported Hepatotoxicity (moderate) value of REVIPARIN SODIUM .
1

---

Assay: Highest frequency of acute liver toxicity observed during clinical trials, expressed as a percentage. [column '% AIGUE' in source]
Settings: human, Liver
Let's look at some molecules and their measured Hepatotoxicity (acute).
Report as: number unit

molecule	Hepatotoxicity (acute)
CC[C@H]1OC(=O)[C@H](C)C(=O)[C@H](C)[C@@H](O[C@@H]2O[C@H](C)C[C@H](N(C)C)[C@H]2O)[C@](C)(OC)C[C@@H](C)C(=O)[C@H](C)[C@H]2N(CCCCn3cnc(-c4cccnc4)c3)C(=O)O[C@]12C	0%
[AsH3]	47.6%
CN(C)Cc1ccc(CSCCN/C(=C\[N+](=O)[O-])NCc2ccc3c(c2)OCO3)o1	0%
Cc1c(N(C)C)c(=O)n(-c2ccccc2)n1C	0%
O=C(O)COc1ccc(C(=O)c2cccs2)c(Cl)c1Cl	0%
CCN(CC)Cc1cc(Nc2ccnc3cc(Cl)ccc23)ccc1O.Cl	6.7%

Can you share its Hepatotoxicity (acute)? I mean this molecule: O=C1CC[C@@]2(O)[C@H]3Cc4ccc(O)c5c4[C@@]2(CCN3CC2CC2)[C@H]1O5 [NALTREXONE]
0%

Sample C=CCOc1ccccc1OCC(O)CNC(C)C (centres undefined) — what was its Hepatotoxicity (acute)?
0%

Any idea what Hepatotoxicity (acute) was measured for CC(C)(C)c1ccc(C(O)CCCN2CCC(C(O)(c3ccccc3)c3ccccc3)CC2)cc1 (centres undefined) ?
0%

# get_value(readout='Hepatotoxicity (acute)', item= Nc1ccc(S(=O)(=O)Nc2nccs2)cc1 )
0%

Param item = COc1cc2nc(N3CCN(C(=O)c4ccco4)CC3)nc(N)c2cc1OC ; retrieve measured Hepatotoxicity (acute).
0.2%

---

Details: human, serum
metric_name: Hepatotoxicity (acute)
Answer with a number only.

// worked examples, Hepatotoxicity (acute) included
substance	Hepatotoxicity (acute)
NYSTATIN	1
SERRAPEPTASE	1

Item LENTINAN has what recorded Hepatotoxicity (acute)?
0

Sample BEMIPARIN SODIUM — what was its Hepatotoxicity (acute)?
0

Data request, read-out Hepatotoxicity (acute), for GALLIUM
1

Item under review: INTERFERON ALFA-2B . Reported Hepatotoxicity (acute)?
13

Item under review: INSULIN HUMAN . Reported Hepatotoxicity (acute)?
1

Tell me the measured Hepatotoxicity (acute) of INTERLEUKIN 6 , please.
2

---

Settings: human
Entries annotated with measured Hepatotoxicity (severe hepatitis)
// return a plain number; no unit text

# lookup: Hepatotoxicity (severe hepatitis) of CCN(CC)CCOc1ccc(C(=C(Cl)c2ccccc2)c2ccccc2)cc1
0

Which measured Hepatotoxicity (severe hepatitis) value corresponds to CO[C@@H]1[C@@H](O[C@@H]2O[C@H](C)[C@@H](O[C@H]3C[C@@](C)(O)[C@@H](OC(=O)CC(C)C)[C@H](C)O3)[C@H](N(C)C)[C@H]2O)[C@@H](CC=O)C[C@@H](C)[C@@H](O)/C=C/C=C/C[C@@H](C)OC(=O)C[C@H]1OC(C)=O ?
0

GET /values?readout=Hepatotoxicity (severe hepatitis)&item= CCC(Cc1c(I)cc(I)c(N)c1I)C(=O)O (configuration not stated)
0

---

Assay: Highest frequency of moderate liver toxicity observed during clinical trials, expressed as a percentage. [column '% BIOL' in source]
Conditions: human
Hepatotoxicity (moderate) overview
Give the value; after it, write the unit.

compound	Hepatotoxicity (moderate)
C[C@H]1c2cccc(O)c2C(=O)C2=C(O)[C@]3(O)C(=O)C(C(N)=O)=C(O)[C@@H](N(C)C)[C@@H]3[C@@H](O)[C@@H]21.O	10%
CC(C)(C)c1ccc(CCC(O)COc2ccc(C(=O)O)cc2)cc1 (stereo unspecified)	3.9%
O=C(O)[C@@H](S)[C@@H](S)C(=O)O	56.7%
O=c1n(CC2CO2)c(=O)n(CC2CO2)n1CC1CO1 (stereo unspecified)	0%
C[C@H]1O[C@@H](O[C@H]2[C@@H](O)C[C@H](O[C@H]3[C@@H](O)C[C@H](O[C@H]4CC[C@@]5(C)[C@H](CC[C@@H]6[C@@H]5C[C@@H](O)[C@]5(C)[C@@H](C7=CC(=O)OC7)CC[C@]65O)C4)O[C@@H]3C)O[C@@H]2C)C[C@H](O)[C@@H]1O	8.3%

Next up:
Suppose we examine the compound O=C1CN2Cc3c(ccc(Cl)c3Cl)N=C2N1 [ANAGRELIDE] ; what Hepatotoxicity (moderate) value has been reported?
0.2%

---

Conditions: human, serum
metric_name: Hepatotoxicity (moderate)
When you answer, write just the number.

Worked cases, answers included:
compound	recorded_measurement
CCC/C=C/C=C/C(=O)O[C@H]1/C(=C/C(=O)OC)C[C@H]2C[C@H]([C@@H](C)O)OC(=O)C[C@H](O)C[C@@H]3C[C@H](OC(C)=O)C(C)(C)[C@](O)(C[C@@H]4C/C(=C/C(=O)OC)C[C@H](/C=C/C(C)(C)[C@]1(O)O2)O4)O3 [BRYOSTATIN 1]	2
CCc1nc(N)nc(N)c1-c1ccc(Cl)cc1.Nc1ccc(S(=O)(=O)c2ccc(N)cc2)cc1	1
COc1cc2[nH]c(C)c(CCN3CCN(c4ccccc4)CC3)c2cc1OC [OXYPERTINE]	1

I'd like to know its Hepatotoxicity (moderate). The compound in question is COC(=O)C1=C(C)NC(C)=C(C(=O)O[C@H]2CCN(Cc3ccccc3)C2)[C@H]1c1cccc([N+](=O)[O-])c1 [BARNIDIPINE]
1

Value lookup for Hepatotoxicity (moderate); key = C#C[C@]1(O)CC[C@H]2[C@@H]3CCC4=Cc5oncc5C[C@]4(C)[C@H]3CC[C@@]21C [DANAZOL]
32

Give the measured Hepatotoxicity (moderate) of CN(C)CCN(Cc1ccccc1)c1ccccn1 [TRIPELENNAMINE] .
0
